system: 5-Lipoxygenase (Rattus norvegicus, UniProt P12527)
Construct: from 20 μM exogenous substrate in 105.000 g supernatants of rat PMNL (System B); from tissue; host or cells: 105,000 g supernatant of sonicated peritoneal PMNL of Wistar rats
Sequence (P12527 1-673): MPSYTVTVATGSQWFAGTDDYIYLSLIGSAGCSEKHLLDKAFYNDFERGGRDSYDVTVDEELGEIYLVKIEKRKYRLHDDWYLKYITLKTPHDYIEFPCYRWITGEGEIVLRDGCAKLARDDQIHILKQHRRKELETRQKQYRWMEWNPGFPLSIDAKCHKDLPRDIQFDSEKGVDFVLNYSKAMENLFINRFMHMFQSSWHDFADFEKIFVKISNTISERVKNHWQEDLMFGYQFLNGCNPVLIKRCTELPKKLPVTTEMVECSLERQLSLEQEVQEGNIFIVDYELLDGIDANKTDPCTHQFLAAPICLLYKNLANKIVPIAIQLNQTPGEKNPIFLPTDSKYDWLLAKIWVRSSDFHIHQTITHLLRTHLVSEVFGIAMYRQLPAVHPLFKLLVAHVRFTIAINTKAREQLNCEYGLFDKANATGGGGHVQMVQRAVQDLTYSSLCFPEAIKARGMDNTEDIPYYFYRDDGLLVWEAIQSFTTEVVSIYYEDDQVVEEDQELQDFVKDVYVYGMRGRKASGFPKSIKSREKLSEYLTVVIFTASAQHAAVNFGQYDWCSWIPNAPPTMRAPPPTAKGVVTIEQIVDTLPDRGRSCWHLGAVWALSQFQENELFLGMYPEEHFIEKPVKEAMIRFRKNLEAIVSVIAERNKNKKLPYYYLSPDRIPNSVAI
assay_details: 5-LOX product formation from endogenous arachidonic acid in ionophore-stimulated intact rat PMNL (System A)
Format: cell-based
test_parameters: ionophore A23187 and Ca2+, 37° C. 5 min, means±standard deviation, n=6
Description: Glycogen-elicited rat peritoneal PMNL were collected 4 hours after the injection of a glycogen solution (5%) in Dulbecco's phosphate-buffered saline (PBS) into the peritoneum of 300-350 g Wistar rats. […] Inhibitors and non-inhibitory pentacyclic triterpenes were added simultaneously. […] The 5-lipoxygenase products were quantified after the addition of 170 ng PGB2 as an internal standard by extraction, with RP-HPLC separation and ultraviolet detection of products. […]
assay_readout: IC50 (µM)

compound	system	IC50 / µM
CC1CCC2(C)CCC3(C)C(=CC(=O)C4C5(C)C=CC(=O)C(C)(c6ccccc6)C5CCC43C)C2C1C (stereo not shown)	5-Lipoxygenase (Rattus norvegicus, UniProt P12527)	0.12
CC1CCC2(C)CCC3(C)C(=CC(=O)C4C5(C)CCC(=O)C(C)(c6ccccc6)C5CCC43C)C2C1C (stereo not shown)	5-Lipoxygenase (Rattus norvegicus, UniProt P12527)	0.17
CC1CCC2(C)CCC3(C)C(=CC(=O)C4C5(C)CCC(=O)C(C)(C(=O)c6ccccc6)C5CCC43C)C2C1C (stereo not shown)	5-Lipoxygenase (Rattus norvegicus, UniProt P12527)	0.078
CC1CCC2(C)CCC3(C)C(=CC(=O)C4C5(C)CCC(O)C(C)(C(=O)O)C5CCC43C)C2C1C (stereo not drawn) [11-keto-β-boswellic acid/1, 11-keto-β-boswellic acid, reference compound]	5-Lipoxygenase (Rattus norvegicus, UniProt P12527)	2.8

(P) CC(=O)O[C@@H]1CC[C@@]2(C)[C@@H](CC[C@]3(C)[C@@H]2C(=O)C=C2[C@@H]4[C@@H](C)[C@H](C)CC[C@]4(C)CC[C@]23C)[C@@]1(C)C(=O)O [AKBA, Acetyl-11-keto-β-boswellic acid, reference compound]
(Q) CC1CCC2(C)CCC3(C)C(=CC(=O)C4C5(C)CCC(=O)C(C)(C(=O)Cl)C5CCC43C)C2C1C (stereo not drawn) [Compound 3, 3,11-dioxo-urs-12-en-24β-acid chloride]
(R) CC1CCC2(C)CCC3(C)C(=CC(=O)C4C5(C)C=CC(=O)C(C)(C(=O)c6ccccc6)C5CCC43C)C2C1C (stereo not shown)
Put the compounds in ascending order of IC50. Order the labels as requested and list them.
R, Q, P
(R: 0.021 µM, Q: 0.19 µM, P: 1.5 µM)
